Where do the numbers come from? From patent US20260209362A1.

Target: T1, human IL-12Rβ2 expressed on cells (human, UniProt Q99665 24-862)
T1 sequence: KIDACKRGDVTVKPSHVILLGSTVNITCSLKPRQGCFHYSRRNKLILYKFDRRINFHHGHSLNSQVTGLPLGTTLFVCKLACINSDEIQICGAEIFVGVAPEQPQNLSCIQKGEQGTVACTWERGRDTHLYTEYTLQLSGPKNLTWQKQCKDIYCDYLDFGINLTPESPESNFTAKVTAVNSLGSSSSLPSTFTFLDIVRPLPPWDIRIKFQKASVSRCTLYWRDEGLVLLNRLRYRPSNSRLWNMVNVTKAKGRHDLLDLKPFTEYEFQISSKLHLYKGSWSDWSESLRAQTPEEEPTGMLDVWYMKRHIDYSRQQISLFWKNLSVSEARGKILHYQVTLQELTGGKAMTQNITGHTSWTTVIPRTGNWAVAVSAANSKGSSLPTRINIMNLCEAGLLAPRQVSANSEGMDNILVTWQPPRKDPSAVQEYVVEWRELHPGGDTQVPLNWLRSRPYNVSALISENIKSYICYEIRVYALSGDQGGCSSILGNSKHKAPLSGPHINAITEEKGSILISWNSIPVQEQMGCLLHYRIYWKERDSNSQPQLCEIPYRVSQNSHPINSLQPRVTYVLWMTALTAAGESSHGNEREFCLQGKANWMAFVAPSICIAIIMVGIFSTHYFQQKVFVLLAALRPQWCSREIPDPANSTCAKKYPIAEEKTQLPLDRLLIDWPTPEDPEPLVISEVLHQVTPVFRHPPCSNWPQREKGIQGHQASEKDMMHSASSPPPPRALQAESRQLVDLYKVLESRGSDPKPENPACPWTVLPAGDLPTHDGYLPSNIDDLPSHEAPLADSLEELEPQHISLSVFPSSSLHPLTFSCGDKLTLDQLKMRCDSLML
Assay: cell-based or functional assay
Recorded metric: % Specific Cell Lysis at 10 ug/mL (%)
Entry rule: numbers only, all in %.

Answered examples (2):
20372-FcDE (Fc fusion) VHH-Fc chain: QVQLQESGGGLVQAGGSLRLSCAASARTESMYAMAWFRQAPGKEREIVAGIIQSGGTTYISDYMKGRFSIDRGNAENTVYLQMDSLKPEDTAVYSCAAKVSSGTPSDIQISQSRWYDHWGQGTQVTVSSAPELLGGPDVFLFPPKPKDTLMISRTPEVTCVVVDVSHEDPEVKFNWYVDGVEVHNAKTKPREEQYNSTYRVVSVLTVLHQDWLNGKEYKCKVSNKALPAPEEKTISKAKGQPREPQVYTLPPSRDELTKNQVSLTCLVKGFYPSDIAVEWESNGQPENNYKTTPPVLDSDGSFFLYSKLTVDKSRWQQGNVFSCSVMHEALHNHYTQKSLSLSPGK: 69.9
20415-FcDE (Fc fusion) VHH-Fc chain: QVQLQESGGGLVQPGGSLRLSCTASGSIVSIYNMDWYRQAPGNEREWVASITSSGDPYYDGSAKGRFTISRDNAKMTVYLQMNSLKPEDTAVYYCKVPTEKGNYWGQGTQVTVSSAPELLGGPDVFLFPPKPKDTLMISRTPEVTCVVVDVSHEDPEVKFNWYVDGVEVHNAKTKPREEQYNSTYRVVSVLTVLHQDWLNGKEYKCKVSNKALPAPEEKTISKAKGQPREPQVYTLPPSRDELTKNQVSLTCLVKGFYPSDIAVEWESNGQPENNYKTTPPVLDSDGSFFLYSKLTVDKSRWQQGNVFSCSVMHEALHNHYTQKSLSLSPGK: 77.9

Next, consider the following binder.
Problem: % Specific Cell Lysis at 10 ug/mL lookup needed for 20394-FcDE (Fc fusion) VHH-Fc chain: QVQLQESGGGLVQAGDSLRLSCAASGRTFDTYIVGWFRQAPGKEREFVSALSWSDDTTIRDDSLRGRFTISRDNAKNTVYLLMNSLKPEDTAVYYCAAKAKPPAATWSSYRNREWYDYWGQGTQVTVSSAPELLGGPDVFLFPPKPKDTLMISRTPEVTCVVVDVSHEDPEVKFNWYVDGVEVHNAKTKPREEQYNSTYRVVSVLTVLHQDWLNGKEYKCKVSNKALPAPEEKTISKAKGQPREPQVYTLPPSRDELTKNQVSLTCLVKGFYPSDIAVEWESNGQPENNYKTTPPVLDSDGSFFLYSKLTVDKSRWQQGNVFSCSVMHEALHNHYTQKSLSLSPGK , thanks.
Solution: 66
